assay: Radio metabolite analysis of [^18F]CETO in NHP plasma; format: in vivo, Macaca fascicularis; conditions: female, cynomolgus monkey, plasma, intravenous; NHP, bi-phasic metabolism; read-out: plasma half-life, fast first phase
readout_type: half-life

Input line: Suppose we examine the molecule C[C@H](c1ccc(Cl)cc1)n1cncc1C(=O)OCC[18F] [[^18F]CETO] ; what half-life value has been reported?
Output line: ~10 min

###

biological target: NHP adrenal gland tissue; test: Competition binding assay against 10 nM [^18F]CETO; conditions: residual binding of 10 nM [^18F]CETO, NHP adrenal gland tissue 200 µg/mL, 60 min, room temperature
Assignment: determine reported pIC50 for the given compounds.
// scale note: pIC50 = -log10(conc_M); give the bare number

Input line: Look up pIC50 for this compound: C[C@H](c1ccc(Cl)cc1)n1cncc1C(=O)OCCF [CETO]
Output line: 8.30

Input line: Reported pIC50 for C[C@H](c1ccccc1)n1cncc1C(=O)OCCF [FETO] : what is it?
Output line: 8.52

Input line: I am curious: what pIC50 value has been reported for COC(=O)c1cncn1C(C)c1ccccc1 (stereo not drawn) [MTO, metomidate] ?
Output line: 8.70
